Taken from PubChem BioAssay AID694.

biological target: Estrogen receptor (Homo sapiens) (UniProt P03372); assay: blockers of coactivator recruitment to ERα – biochemical, LOPAC library, TR-FRET, primary screen (AID 694); conditions: TR-FRET ERalpha-coactivator peptide binding, inhibition, at 15 µM, stronger effect = higher value;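 also: receptor was agonist-bound with estradiol present during the assay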
Sequence (P03372 whole entry, looked up): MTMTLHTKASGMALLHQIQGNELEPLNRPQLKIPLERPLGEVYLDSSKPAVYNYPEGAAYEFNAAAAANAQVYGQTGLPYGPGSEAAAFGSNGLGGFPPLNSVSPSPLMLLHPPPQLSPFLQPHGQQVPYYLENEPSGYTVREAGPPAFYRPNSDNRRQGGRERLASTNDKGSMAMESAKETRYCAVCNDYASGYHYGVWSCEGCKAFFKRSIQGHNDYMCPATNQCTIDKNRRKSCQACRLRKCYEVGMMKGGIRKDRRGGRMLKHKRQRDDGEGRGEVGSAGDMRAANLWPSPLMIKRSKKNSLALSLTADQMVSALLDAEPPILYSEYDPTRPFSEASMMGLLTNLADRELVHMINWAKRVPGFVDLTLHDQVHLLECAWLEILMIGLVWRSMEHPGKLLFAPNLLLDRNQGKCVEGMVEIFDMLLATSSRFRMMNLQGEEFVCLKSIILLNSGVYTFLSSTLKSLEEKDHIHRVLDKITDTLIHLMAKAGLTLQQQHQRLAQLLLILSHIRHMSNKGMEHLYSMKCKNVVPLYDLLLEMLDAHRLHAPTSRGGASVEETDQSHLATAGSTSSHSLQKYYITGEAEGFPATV
Out of some 1,300 compounds screened, about 25 (2%) were called active. This excerpt belongs to a sample that is enriched for actives.
Reported inhibition values for the following compounds.
Report only the number, with the unit % understood.

Recorded inhibition (compound Cn1c(=O)c2[nH]c(C3CCCC3)nc2n(C)c1=O ): -1.01

Recorded inhibition (compound C/C(=C\c1ccc(C(=O)O)cc1)c1ccc2c(c1)C(C)(C)CCC2(C)C ): 34.2

Recorded inhibition (compound Cc1c(CC(C)(C)C(=O)O)n(Cc2ccc(Cl)cc2)c2ccc(F)cc12 ): 5.8

====

Reported inhibition values for the following compounds.
biological target: Estrogen receptor (Homo sapiens) (UniProt P03372); assay: blockers of coactivator recruitment to ERα – biochemical, LOPAC library, TR-FRET, primary screen (AID 694); settings: TR-FRET ERalpha-coactivator peptide binding, inhibition, at 15 µM, stronger effect = higher value;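 also: receptor was agonist-bound with estradiol present during the assay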
About 25 (2%) of roughly 1,300 compounds were called active. The sample as a whole holds a higher share of actives than the screen did.
Report only the number, with the unit % understood.

Recorded inhibition (compound Cc1cc2c(cc1Cl)N(C(=O)Nc1ccnc3ccccc13)CC2 ): 1.97

Recorded inhibition (compound Cn1cnc2c(NCc3ccccc3)nc(NCCO)nc21 ): 1.76

Recorded inhibition (compound CN(C)CCCN1c2ccccc2Sc2ccc(C(F)(F)F)cc21 ): 1.81

Recorded inhibition (compound O=S(=O)(O)C1CCNCC1 ): 4.59

Recorded inhibition (compound CC[N+](CC)(CC)CC(=O)Nc1c(C)cccc1C ): 1.79

====

biological target: Estrogen receptor (Homo sapiens) (UniProt P03372); assay: blockers of coactivator recruitment to ERα – biochemical, LOPAC library, TR-FRET, primary screen (AID 694); details: TR-FRET ERalpha-coactivator peptide binding, inhibition, at 15 µM, stronger effect = higher value;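 also: receptor was agonist-bound with estradiol present during the assay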
About 25 (2%) of roughly 1,300 compounds were called active. Many of the other results were omitted from the sample, so actives are more common in it than they were.
MEASURED_PROPERTY: inhibition (%)
Report only the number, with the unit % understood.

[[record]]
molecule = "O=c1[nH]c2cc(C(F)(F)F)ccc2n1-c1cc(C(F)(F)F)ccc1O"
measured_property = "inhibition"
test_value = 1.4

[[record]]
molecule = "CCN1CCc2nc(N)oc2CC1"
measured_property = "inhibition"
test_value = -5.11

[[record]]
molecule = "NS(=O)(=O)c1cc2c(cc1Cl)NC=NS2(=O)=O"
measured_property = "inhibition"
test_value = 1.82


Recorded inhibition (molecule CSc1nc(N)c2ncn([C@@H]3O[C@H](COP(=O)(O)OP(=O)(O)O)[C@H](O)C3O)c2n1 (some centres not stated) ): -1.28

Recorded inhibition (molecule CCCCCCCCCCC/C=C\C(C)(C)/C=C\CCCC(=O)O ): 17.4

Recorded inhibition (molecule N[C@@H](CC(=O)O)C(=O)O ): -8.89

Recorded inhibition (molecule NC(=NCc1ccc(Cl)c(Cl)c1)NC(=O)c1nc(Cl)c(N)nc1N ): -1.44

Recorded inhibition (molecule NCCSSCCN ): -6.09

Recorded inhibition (molecule CC1=C(CC(=O)O)c2cc(F)ccc2/C1=C\c1ccc(S(C)(=O)=O)cc1 ): 2.34

====

target: Estrogen receptor (Homo sapiens) (UniProt P03372); experiment: blockers of coactivator recruitment to ERα – biochemical, LOPAC library, TR-FRET, primary screen (AID 694); conditions: TR-FRET ERalpha-coactivator peptide binding, at 45 µM, stronger effect = higher value;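 also: receptor was agonist-bound with estradiol present during the assay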
Screen size: about 1,300 compounds; about 25 (2%) were called active. The entries come from a sample that favours actives as a whole.
Reported inhibition values for the following compounds.
Report only the number, with the unit % understood.

[[record]]
compound = "CN1CCc2c(cc(O)c(O)c2Cl)C(c2cccc(Cl)c2)C1 (centres undefined)"
target = "Estrogen receptor (Homo sapiens) (UniProt P03372)"
test_value = 7.51


Recorded inhibition (compound OCC1O[C@H](O)C(Cl)C(O)C1O (some centres undefined) ): 2.62

Recorded inhibition (compound CC(=O)NCCc1c[nH]c2ccc(O)cc12 ): -5.1

Recorded inhibition (compound O=S(=O)(c1cccc2c(Cl)cccc12)N1CCCNCC1 ): -6.25

====

molecular target: Estrogen receptor (Homo sapiens) (UniProt P03372); test: blockers of coactivator recruitment to ERα – biochemical, LOPAC library, TR-FRET, primary screen (AID 694); conditions: TR-FRET ERalpha-coactivator peptide binding, at 45 µM;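 also: receptor was agonist-bound with estradiol present during the assay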
The campaign covered roughly 1,300 compounds. About 25 (2%) were called active. No rule for the calls is given here. The sample as a whole holds a higher share of actives than the screen did.
I would appreciate it if you answered using one of these outcomes: 1.0 (active), 0.0 (inactive)

Some solved cases for reference:
[[record]]
compound = "N#C/C(=C\\c1ccc(O)c(O)c1)C(=O)NCCCNC(=O)/C(C#N)=C/c1ccc(O)c(O)c1"
class_label = 0.0

[[record]]
compound = "C[C@@H](Oc1ccc(Oc2cnc3ccc(Cl)cc3n2)cc1)C(=O)O"
class_label = 0.0

[[record]]
compound = "COc1cc(/C=C(\\C#N)C(=O)c2ccc(O)c(O)c2)cc(I)c1O"
class_label = 0.0

[[record]]
compound = "CCCCCCCCCCCCCCSCC(=O)O"
class_label = 1.0

[[record]]
compound = "CC(C)(Sc1ccc(CCN(CCCCC2CCCCC2)C(=O)NC2CCCCC2)cc1)C(=O)O"
class_label = 0.0

[[record]]
compound = "N#C/C(=C\\c1ccc(O)c(O)c1)C(=O)c1ccc(O)c(O)c1"
class_label = 1.0

[[record]]
compound = "NC(N)=[N+]1CCc2ccccc2C1"
class_label = 0.0

[[record]]
compound = "CCCCOC(=O)NS(=O)(=O)c1sc(CC(C)C)cc1-c1ccc(Cn2c(CC)nc3c(C)cc(C)nc32)cc1"
class_label = 0.0


Q: Outcome? CCCCCCC/C=C\CCCCCCCCC(=O)O
A: 0.0

Q: Outcome? CCCCCC(O)CCCC(=O)O (stereo unspecified)
A: 0.0

Q: Outcome? O=S(=O)(c1cccc2c(I)cccc12)N1CCCNCC1
A: 0.0

====

target: Estrogen receptor (Homo sapiens); experiment: blockers of coactivator recruitment to ERα – biochemical, LOPAC library, TR-FRET, primary screen (AID 694); settings: TR-FRET ERalpha-coactivator peptide binding, at 45 µM, stronger effect = higher value;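 also: receptor was agonist-bound with estradiol present during the assay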
Among all 1,300 compounds or so, about 25 (2%) were called active. The full list was thinned out, with actives kept by preference.
Reported inhibition values for the following compounds.
Report only the number, with the unit % understood.

[[record]]
sample_smiles = "Cc1c(CC(C)(C)C(=O)O)n(Cc2ccc(Cl)cc2)c2ccc(F)cc12"
test_value = 9.14

[[record]]
sample_smiles = "CCN1CCc2nc(N)oc2CC1"
test_value = -3.72

[[record]]
sample_smiles = "CCCCC#Cc1nc(N)c2ncn([C@@H]3O[C@H](C(=O)NCC)[C@@H](O)[C@H]3O)c2n1"
test_value = -0.57

[[record]]
sample_smiles = "C/C(=C\\c1ccc(C(=O)O)cc1)c1ccc2c(c1)C(C)(C)CCC2(C)C"
test_value = 40.9

[[record]]
sample_smiles = "COc1ccc2c(c1)c(CC(=O)N1CCOCC1)c(C)n2C(=O)c1ccc(Cl)cc1"
test_value = 2.58


Recorded inhibition (compound C=CC[C@H](N)C(=O)O ): -2.53

====

target: Estrogen receptor (Homo sapiens) (UniProt P03372); assay: blockers of coactivator recruitment to ERα – biochemical, LOPAC library, TR-FRET, primary screen (AID 694); details: TR-FRET ERalpha-coactivator peptide binding, inhibition, at 15 µM, stronger effect = higher value;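 also: receptor was agonist-bound with estradiol present during the assay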
Screen size: about 1,300 compounds; about 25 (2%) were called active. The entries come from a sample that favours actives as a whole.
Reported inhibition values for the following compounds.
Report only the number, with the unit % understood.

Before answering, review these 3 worked examples.
[[record]]
compound = "C[C@@H](Oc1ccc(Oc2cnc3ccc(Cl)cc3n2)cc1)C(=O)O"
target = "Estrogen receptor (Homo sapiens) (UniProt P03372)"
measured_property = "inhibition"
test_value = -2.92

[[record]]
compound = "NC(=NCCC[C@H](N)C(=O)O)NO"
target = "Estrogen receptor (Homo sapiens) (UniProt P03372)"
measured_property = "inhibition"
test_value = 2.74

[[record]]
compound = "CC1=C(C(=O)O)N2C(=O)[C@@H](NC(=O)C(N)c3ccccc3)[C@H]2SC1 (stereo partly specified)"
target = "Estrogen receptor (Homo sapiens) (UniProt P03372)"
measured_property = "inhibition"
test_value = -4.71


Recorded inhibition (compound NCCCS(=O)(=O)O ): -0.89

Recorded inhibition (compound CC(=O)[C@H]1CCC2C3CC=C4C[C@@H](OS(=O)(=O)O)CC[C@]4(C)C3CC[C@@]21C (stereo partly specified) ): 0.94

Recorded inhibition (compound CC(C)C[C@H](N)CSSC[C@@H](N)CC(C)C ): -0.82
